Exercise: state measured abundance fitness for each of the variants provided.
B1: SAM and SH3 domain-containing protein 1, residues 630 to 700; numbered along this chain, O94885 (parent)
chain: GRPPQPKSVEDLLDRINLKEHMPTFLFNGYEDLDTFKLLEEEDLDELNIRDPEHRAVLLTAVELLQEYDSN

variants of: B1; test: abundance fitness (aPCA) (normalised: wild type 0, dead -1); higher = more abundant; growth selection in yeast, the domain comes from the species named; conditions: Homo sapiens
One number for each entry.

Record abundance fitness per entry; entries follow.
1. GRPPQPKSVEDLLDRINLKEHMPTFLFNGYEDLDTFKLLEEEDLDELPIRDPEHRAVLLTAVELLQEYDSN [N48P]
2. GRPPQPKSVEDLLDRINLKEHMPTFLFNGYEDLDTFKLLEEEDHDELNIRDPEHRAVLLTAVELLQEYDSN [L44H]
3. GRPPQPKSVEDLLDRINLKEHNPTFLFNGYEDLDTFKLLEEEDLDELNIRDPEHRAVLLTAVELLQEYDSN [M22N]
4. GRPPQPKSVEDLLDRINLKEHMPTFLFNGYEDLDTFKLLEEEDLDELNIRDPEHQAVLLTAVELLQEYDSN [R55Q]
5. GRPPQPKSVEDLLDRINLKEHMPTFLFNGYEDLDTFKLLEEADLDELNIRDPEHRAVLLTAVELLQEYDSN [E42A]
6. GRPPQPKSVEDLLDRINLKEHMPTFLFNGYEDLDTFKLLEEEDLDELNIRDPEHRAVLLTAVEILQEYDSN [L64I]

A)
1: -0.837; 2: -0.941; 3: -0.503; 4: -0.5; 5: 0.104; 6: -0.393

// batch mode: one abundance fitness value per listed entry
1. GRPPQPKSVEDLLDRINLKEHMPTFLFNGYEDLDLFKLLEEEDLDELNIRDPEHRAVLLTAVELLQEYDSN [T35L]
2. GRPPQPKSVEDLLDRINIKEHMPTFLFNGYEDLDTFKLLEEEDLDELNIRDPEHRAVLLTAVELLQEYDSN [L18I]

A)
1. -0.515
2. -0.716

Batch request: abundance fitness for each of the following variants.
1. GRPPQPKSVEDLLDRINLKEHMPTFLFNGYEMLDTFKLLEEEDLDELNIRDPEHRAVLLTAVELLQEYDSN [D32M]
2. GRPPQPKSVEDLLDHINLKEHMPTFLFNGYEDLDTFKLLEEEDLDELNIRDPEHRAVLLTAVELLQEYDSN [R15H]
3. GRPPQPKSVEDLLDAINLKEHMPTFLFNGYEDLDTFKLLEEEDLDELNIRDPEHRAVLLTAVELLQEYDSN [R15A]

A)
1. -0.682
2. -0.342
3. 0.055
